- experimental-system: T1, full length recombinant human 2N4R tau (human, UniProt P10636 1-758)
- T1 construct: bought from rPeptide; pHrodo Red maleimide-labelled where it stands in uptake assays; also called tau1-441; full length tau
- T1 sequence (P10636 other isoform, or with tags, fused parts or gaps limits assumed): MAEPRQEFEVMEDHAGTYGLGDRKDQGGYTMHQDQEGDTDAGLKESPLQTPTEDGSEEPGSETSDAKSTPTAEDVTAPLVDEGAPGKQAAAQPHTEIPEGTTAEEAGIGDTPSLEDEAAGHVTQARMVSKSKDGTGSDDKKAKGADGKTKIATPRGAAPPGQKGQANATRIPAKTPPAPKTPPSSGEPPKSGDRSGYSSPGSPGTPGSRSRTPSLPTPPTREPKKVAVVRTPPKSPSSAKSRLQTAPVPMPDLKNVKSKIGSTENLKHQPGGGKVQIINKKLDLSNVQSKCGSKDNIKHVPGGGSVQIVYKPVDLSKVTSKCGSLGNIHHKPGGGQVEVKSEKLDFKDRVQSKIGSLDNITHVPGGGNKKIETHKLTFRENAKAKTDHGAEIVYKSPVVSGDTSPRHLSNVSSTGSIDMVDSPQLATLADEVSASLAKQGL
- assay-text: SPR SCK, IgG on Protein A, tau in flow
measured-parameter: Relative KD (to VH0VK0)
Would you mind answering with just the numeric figure?

// solved cases for Relative KD (to VH0VK0) follow
#44 VH4VK1 humanised hIgG1 (antibody, V domains shown, also called VH4Vκ1) VH: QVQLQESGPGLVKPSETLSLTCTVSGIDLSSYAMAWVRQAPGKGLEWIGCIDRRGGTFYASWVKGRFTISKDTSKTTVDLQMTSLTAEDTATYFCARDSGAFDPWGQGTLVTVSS VL: QIVMTQSPSSLSASVGDRVTITCQASQSVYDNYLAWYQQKPGQPPKLLIHAASNLASRVPSRFKGSGSGTEFTLTISSLQCDDFATYYCLGEFSCTTTDCNVFGGGTEVVIK    1.78
#44 VH5VK1 humanised hIgG1 (antibody, V domains shown, also called VH5Vκ1) VH: QVQLQESGPGLVKPSETLSLTCTVSGIDLSSYAMAWVRQAPGKGLEWIGCIDRRGGTFYASWVKGRFTISRDNSKNTLDLQMTSLTAEDTATYYCARDSGAFDPWGQGTLVTVSS VL: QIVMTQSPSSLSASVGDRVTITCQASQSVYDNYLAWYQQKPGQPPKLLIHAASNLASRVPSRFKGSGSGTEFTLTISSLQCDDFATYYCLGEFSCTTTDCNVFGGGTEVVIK    2.17

Consider the binder #44 VH1VK2 humanised hIgG1 (antibody, V domains shown, also called VH1Vκ2) VH: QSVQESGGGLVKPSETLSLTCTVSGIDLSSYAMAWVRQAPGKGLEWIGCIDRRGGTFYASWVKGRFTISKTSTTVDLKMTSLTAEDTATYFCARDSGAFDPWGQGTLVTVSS VL: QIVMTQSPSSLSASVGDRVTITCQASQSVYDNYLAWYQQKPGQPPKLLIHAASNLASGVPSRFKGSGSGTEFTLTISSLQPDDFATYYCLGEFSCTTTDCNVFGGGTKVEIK . State its measured Relative KD (to VH0VK0).
1.11
